# Tested on: Vero E6 infected with SARS-CoV-2
# Measurement Notes: inhibition of SARS-CoV-2 cytopathic effect; higher = more antiviral protection, active = above 15
# Test Conditions: 100 nM; 48 h
Measured Parameter: inhibition of SARS-CoV-2 cytopathic effect (%)
Report the figure in % without appending any unit label.

Requested field: inhibition of SARS-CoV-2 cytopathic effect. Item: "O=C(NCc1cccc(O)c1)Nc1nc(-c2ccncc2)cs1"
-1.57

Requested field: inhibition of SARS-CoV-2 cytopathic effect. Item: "CC(=O)CCCCn1c(=O)c2c(ncn2C)n(C)c1=O"
0.1

Requested field: inhibition of SARS-CoV-2 cytopathic effect. Item: "CN(C)C(=O)Oc1cccc([N+](C)(C)C)c1"
0.73

Requested field: inhibition of SARS-CoV-2 cytopathic effect. Item: "CC(=O)N1CCN(C)CC1"
3.95

Requested field: inhibition of SARS-CoV-2 cytopathic effect. Item: "O=C1NC(=O)/C(=C/c2ccc3nccc(-c4ccncc4)c3c2)S1"
1.55

Requested field: inhibition of SARS-CoV-2 cytopathic effect. Item: "CCCCCCCCCCCCCC[C@@H](O)[C@@H](O)[C@@H](N)CO"
-1.1

Requested field: inhibition of SARS-CoV-2 cytopathic effect. Item: "Cc1c(Cl)cccc1S(=O)(=O)Nc1nc(CC(=O)N2CCN(C)CC2)cs1"
-1.13

Requested field: inhibition of SARS-CoV-2 cytopathic effect. Item: "C[C@H](Nc1cc(-c2cnn(C)c2)cc(Nc2cnccn2)n1)c1ccc(F)cc1"
2.86

Requested field: inhibition of SARS-CoV-2 cytopathic effect. Item: "N#C/C(=C\c1ccc(O)c(O)c1)C(=O)NCCCc1ccccc1"
-0.73

Requested field: inhibition of SARS-CoV-2 cytopathic effect. Item: "CN1CCN(C(=O)c2cc3cc(Cl)ccc3[nH]2)CC1"
-1.58
